# Target: FAAH (Rattus norvegicus, UniProt P97612)
# Construct: Preparation of Rat Brain Membranes Preparations (FAAH Enzyme Solution); from tissue; host or cells: rat cerebrum (brain membrane preparation)
# Sequence (P97612 whole entry): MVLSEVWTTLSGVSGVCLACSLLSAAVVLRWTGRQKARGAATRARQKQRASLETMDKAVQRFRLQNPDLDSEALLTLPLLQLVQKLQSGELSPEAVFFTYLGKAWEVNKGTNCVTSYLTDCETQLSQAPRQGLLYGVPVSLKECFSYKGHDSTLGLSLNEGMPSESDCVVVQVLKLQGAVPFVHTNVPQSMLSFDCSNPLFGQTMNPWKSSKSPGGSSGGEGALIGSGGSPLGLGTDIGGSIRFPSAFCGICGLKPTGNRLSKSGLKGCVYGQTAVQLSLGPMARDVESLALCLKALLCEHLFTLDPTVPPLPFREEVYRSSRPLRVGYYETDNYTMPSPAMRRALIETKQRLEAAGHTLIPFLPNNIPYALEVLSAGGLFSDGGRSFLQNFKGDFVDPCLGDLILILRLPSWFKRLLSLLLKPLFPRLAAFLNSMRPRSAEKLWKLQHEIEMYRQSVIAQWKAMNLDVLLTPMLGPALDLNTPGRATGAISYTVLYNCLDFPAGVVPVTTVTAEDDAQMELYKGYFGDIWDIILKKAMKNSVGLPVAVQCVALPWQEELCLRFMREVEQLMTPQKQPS
# Protocol: Determination of FAAH inhibitory activity in rat (rat brain membrane preparations, [3H]-anandamide hydrolysis)
# Type: biochemical
# Conditions: rat brain membrane preparations; 100 nM test substance; read-out: FAAH Inhibition, Inhibition Rate at 100 nM
Assignment: determine reported inhibition at 0.1 µM for the given compounds.
Reply with the number and its unit after it.

Specify the recorded inhibition at 0.1 µM for Cn1c(=O)n(C(=O)N2CCN(c3ccc(C(F)(F)F)cn3)CC2)c2cnc(-c3ccccc3)nc21 , system: FAAH (Rattus norvegicus, UniProt P97612).
98%

Specify the recorded inhibition at 0.1 µM for Cn1c(=O)n(C(=O)N2CCCC2)c2cnc(-c3cccc([N+](=O)[O-])c3)nc21 , system: FAAH (Rattus norvegicus, UniProt P97612).
98%

Specify the recorded inhibition at 0.1 µM for COCc1ncc2c(n1)n(C)c(=O)n2C(=O)N1CC[C@@H](Oc2ccccc2C)C1 , system: FAAH (Rattus norvegicus, UniProt P97612).
76%

Specify the recorded inhibition at 0.1 µM for Cn1c(=O)n(C(=O)N2CCCC2)c2nc(Cc3ccc(F)cc3)ncc21 , system: FAAH (Rattus norvegicus, UniProt P97612).
91%
